Molecular target: T1, recombinant purified human RGM A (R&D Systems Cat# 2459-RM) (human) (UniProt Q96B86)
T1 sequence: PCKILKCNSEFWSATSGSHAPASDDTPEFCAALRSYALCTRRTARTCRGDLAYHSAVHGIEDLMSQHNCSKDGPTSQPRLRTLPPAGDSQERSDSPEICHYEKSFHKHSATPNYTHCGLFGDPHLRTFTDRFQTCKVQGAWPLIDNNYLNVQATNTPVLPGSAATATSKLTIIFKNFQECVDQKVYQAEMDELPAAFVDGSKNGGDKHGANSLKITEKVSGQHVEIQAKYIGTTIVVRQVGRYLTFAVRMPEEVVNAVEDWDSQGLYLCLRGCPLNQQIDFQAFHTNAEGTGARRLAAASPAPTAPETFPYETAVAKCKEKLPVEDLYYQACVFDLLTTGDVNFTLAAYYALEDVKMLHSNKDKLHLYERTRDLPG
Assay: SPR (Biacore 3000), antibody captured by anti-human IgG Fc, hRGMA in solution, 25 °C
value.kind: kon (M⁻¹ s⁻¹)
Numeric only. Scale: M⁻¹ s⁻¹

Data request: Name the reported kon value associated with the binder h5F9.25 (antibody, human IgG1, V domains shown) VH: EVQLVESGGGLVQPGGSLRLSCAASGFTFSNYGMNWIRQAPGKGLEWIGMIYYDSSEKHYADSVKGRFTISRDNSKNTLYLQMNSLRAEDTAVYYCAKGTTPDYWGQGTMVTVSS VL: DVVLTQSPLSLPVTLGQPASISCRSSQSLEYSDGYTFLEWFLQKPGQSPQLLIYEVSNRFSGVPDRFSGSGSGTDFTLKISRVEAEDVGVYYCFQATHDPLTFGQGTKLEIKR
Data returned: 570000

These measurements were taken from patent US20100028340A1.
